From: patent US8624040B2

Biological target: purified human HDAC6 (Homo sapiens)
Measurement Label: IC50

| Smiles Repr | IC50 |
| --- | --- |
| O=C(NO)c1cc2c(s1)CN(C(=O)c1cc(F)cc(F)c1)CC2 | < 50 nM |
| O=C(NO)c1cc2c(s1)CN(C(=O)C13CC4CC(CC(C4)C1)C3)C2 | 50 to 100 nM |
| NC(=O)CSc1ccsc1C(=O)N1CCc2cc(C(=O)NO)sc2C1 | > 1000 nM |
| CC1(C(=O)N2Cc3cc(C(=O)NO)sc3C(C)(C)C2)CCCCC1 | > 1000 nM |
| CC(C)(C)C(=O)N1CCc2cc(C(=O)NO)sc2C1 | < 50 nM |

# IC50 of O=C(NO)c1cc2c(s1)CN(S(=O)(=O)CC(c1ccccc1)c1ccccc1)CC2 = < 50 nM

For reference, reported IC50 for O=C(NO)c1cc2c(s1)CCN(C(=O)C13CC4CC(CC(C4)C1)C3)C2 stands at < 50 nM

IC50 recorded for this compound, CC(C)(C)c1ccc(C(=O)N2Cc3cc(C(=O)NO)sc3C(C)(C)C2)cc1 , is > 1000 nM

Query CC(C)(C)C(=O)N1CCc2sc(C(=O)NO)cc2C1 yields IC50 of < 50 nM

So, CC1(C)CN(C(=O)c2ccccc2Cl)Cc2cc(C(=O)NO)sc21 ? Its IC50 was > 1000 nM

Summary for this compound, O=C(NO)c1cc2c(s1)CN(Cc1ccc3c(c1)OCCCO3)CC2 : IC50 is < 50 nM

Entry Cc1c(C(=O)N2CCc3cc(C(=O)NO)sc3C2)cnn1-c1ccccc1 , IC50 reported as < 50 nM

response.value for Cc1onc(-c2ccccc2)c1NC(=O)N1CCc2cc(C(=O)NO)sc2C1 (field: IC50) = < 50 nM

In plain terms, Cc1onc(-c2ccccc2)c1C(=O)N1CCc2cc(C(=O)NO)sc2C1 has a documented IC50 of < 50 nM

Lab note: measured IC50 of CC(C)c1ccc(NC(=O)N2CCc3cc(C(=O)NO)sc3C2)cc1 was < 50 nM

Short answer for Cn1cccc1C(=O)N1Cc2cc(C(=O)NO)sc2C(C)(C)C1 : IC50 was > 1000 nM

For reference, reported IC50 for Cc1nc(-c2ccccc2)ncc1C(=O)N1CCc2cc(C(=O)NO)sc2C1 stands at < 50 nM

Briefly, IC50 measured for CCCCS(=O)(=O)N1CCc2cc(C(=O)NO)sc2C1 : < 50 nM

// field: IC50; key: CCn1nc(C)cc1C(=O)N1CCc2cc(C(=O)NO)sc2C1 ; value = 50 to 100 nM

----------
Target: purified human HDAC6 (Homo sapiens, UniProt Q9UBN7)
Sequence (Q9UBN7 whole entry): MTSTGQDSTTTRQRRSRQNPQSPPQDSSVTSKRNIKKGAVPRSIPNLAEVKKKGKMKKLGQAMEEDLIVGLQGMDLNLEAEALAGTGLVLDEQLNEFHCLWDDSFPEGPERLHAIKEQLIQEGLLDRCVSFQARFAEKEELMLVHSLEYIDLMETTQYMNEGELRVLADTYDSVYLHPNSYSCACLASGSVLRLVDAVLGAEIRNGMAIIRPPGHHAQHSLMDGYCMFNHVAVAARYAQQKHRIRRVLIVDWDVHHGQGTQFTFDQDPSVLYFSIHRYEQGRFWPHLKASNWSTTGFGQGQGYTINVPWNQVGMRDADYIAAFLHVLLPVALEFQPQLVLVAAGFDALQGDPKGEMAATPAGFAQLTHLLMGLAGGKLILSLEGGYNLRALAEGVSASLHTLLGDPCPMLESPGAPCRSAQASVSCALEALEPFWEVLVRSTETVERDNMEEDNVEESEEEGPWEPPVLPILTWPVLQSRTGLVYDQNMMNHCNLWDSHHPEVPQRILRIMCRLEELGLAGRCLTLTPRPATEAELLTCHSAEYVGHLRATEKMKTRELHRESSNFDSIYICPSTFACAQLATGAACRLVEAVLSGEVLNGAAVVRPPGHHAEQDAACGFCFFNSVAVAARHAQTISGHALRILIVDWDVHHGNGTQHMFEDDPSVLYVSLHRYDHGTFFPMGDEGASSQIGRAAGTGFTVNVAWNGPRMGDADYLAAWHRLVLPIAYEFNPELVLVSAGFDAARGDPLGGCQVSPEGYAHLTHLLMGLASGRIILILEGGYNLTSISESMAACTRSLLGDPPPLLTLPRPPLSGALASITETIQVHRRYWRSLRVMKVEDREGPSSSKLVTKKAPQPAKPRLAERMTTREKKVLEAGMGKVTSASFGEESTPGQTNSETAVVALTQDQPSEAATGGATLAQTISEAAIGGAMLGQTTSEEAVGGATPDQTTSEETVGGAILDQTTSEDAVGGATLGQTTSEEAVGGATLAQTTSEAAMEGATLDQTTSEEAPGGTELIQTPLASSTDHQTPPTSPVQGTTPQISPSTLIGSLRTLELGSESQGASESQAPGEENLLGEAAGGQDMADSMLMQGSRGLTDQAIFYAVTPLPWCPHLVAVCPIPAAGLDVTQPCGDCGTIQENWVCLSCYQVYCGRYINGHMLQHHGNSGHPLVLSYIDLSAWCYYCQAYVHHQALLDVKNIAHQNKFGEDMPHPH
Measurement Label: IC50

Use the examples below as a reference point.
| Smiles Repr | IC50 |
| --- | --- |
| Cc1c(C(=O)NO)sc2c1CN(C(=O)c1cc3ccccc3o1)CC2 | 50 to 100 nM |
| Cc1ccc(OCC(=O)N2CCc3cc(C(=O)NO)sc3C2)c(C)c1 | > 1000 nM |

Then this compound:
O=C(NO)c1cc2c(s1)CN(C(=O)Nc1ccc(I)cc1)CC2 on purified human HDAC6 (Homo sapiens, UniProt Q9UBN7) gives IC50 = < 50 nM
